assay: qHTS assay for identifying genotoxic compounds that show differential cytotoxicity against isogenic chicken DT40 cell lines with known DNA damage response pathways - wild type cell line (AID 743012); details: DT40 wild type chicken cells viability, CellTiter-Glo, 40 h; series mostly up to 68.4 µM; note: nearly all actives have a fitted effect of over 60% in size
Inconclusive results are not listed. The source made the active and inactive calls. Calls come from the whole dose curve; as a rule, active = well fitted cell-killing curve with a large enough effect in the repeat runs; inconclusive = weak or mixed curves, or effect the other way; inactive = no such curve, though single readings can be large or run the other way.
Would you mind answering with one of these outcomes? Yes for active, No for inactive

Solved entries (count: 7):
smiles_structure=CC(=O)Oc1cccc(O)c1 label_value=No
smiles_structure=Cc1ccc2c(c1)CCCN2 label_value=No
smiles_structure=Nc1ccn([C@H]2CS[C@@H](CO)O2)c(=O)n1 label_value=No
smiles_structure=CC(C)C(=O)OCCOc1ccccc1 label_value=No
smiles_structure=O=C(O)CNC(=O)c1ccccc1I label_value=No
smiles_structure=Cc1ccc(NC(=O)N(C)C)cc1NC(=O)N(C)C label_value=No
smiles_structure=C/C(C=O)=C\c1ccccc1 label_value=No

Next item in the queue.
Tell me the recorded outcome of this test for COc1ccc(-c2cc(=S)ss2)cc1 .
Yes
